Data origin: ChEMBL document CHEMBL3808334

Assay: Growth inhibition of human COLO205 cells incubated for 48 hrs by sulforhodamine B assay
Type: functional
Conditions: COLO 205, 48 h, read-out: pGI50 (converted)
Quantity Name: GI50

1) Fc1ccc(-c2nc(Nc3ccc(-c4nc5ccccc5[nH]4)cc3)nc(N3CCOCC3)n2)cc1    1910 nM
2) c1ccc2[nH]c(-c3ccc(Nc4nc(N5CCCCC5)nc(N5CCOCC5)n4)cc3)nc2c1    1860 nM
3) Clc1ccc(-c2nc(Nc3ccc(-c4nc5ccccc5[nH]4)cc3)nc(N3CCOCC3)n2)cc1    302 nM

Now look at this entry.
Which GI50 is reported for this compound? `c1ccc(-c2nc(Nc3ccc(-c4nc5ccccc5[nH]4)cc3)nc(N3CCOCC3)n2)cc1`
1410 nM
